# experiment_summary: Stability of solutions by spectroscopic measurements
# Type: physicochemical
# assay_conditions: DMSO solution; 100 μM in DMSO, room temperature
parameter: half-life at 100 µM

## Task Param item = CC1=NN(c2ccccc2)C(=O)[C@@]12C(c1ccccc1)[C@@]21C(=O)N(c2ccccc2)N=C1C (relative stereo) ; retrieve measured half-life at 100 µM.
## Result ~7.85 h

###

# Tested on: CHO-K1 cells
# Type: cell-based, hamster
parameter: Genotoxic effect in comet assay versus DMSO control

[[record]]
compound = "CC1=NN(c2ccccc2)C(=O)[C@@]12C(c1ccc([N+](=O)[O-])cc1)[C@@]21C(=O)N(c2ccccc2)N=C1C (relative stereo) [4k]"
value_reported = "most significant"

[[record]]
compound = "CC1=NN(c2ccccc2)C(=O)[C@@]12C(c1cccc([N+](=O)[O-])c1)[C@@]21C(=O)N(c2ccccc2)N=C1C (relative stereo) [4d]"
value_reported = "most significant"


###

# Test system: MCF-7
# experiment_summary: MTS cell viability assay on MCF-7 cells
# Assay type: cell-based
# assay_conditions: Homo sapiens, MCF7, 48 h, Dox 1 µM, mean ± SEM, NA = no activity, read-out: Percentage (%) of inhibition, MCF-7
# Source text: Five tumor human cancer cell lines—cerebral astrocytoma (D-384), grade IV prostatic adenocarcinoma (PC-3), mammary adenocarcinoma (MCF-7), human colon carcinoma (RKO) and lung carcinoma (A-549)—along with one immortalized hamster cell line (CHO K-1) were used. […] The viable cells were counted using the trypan blue exclusion method in a hemocytometer. […]
# inhibition at 100 µM >= 20% gives T, anything below gives F

Consider the worked cases shown below.
[[record]]
compound = "CC1=NN(c2ccccc2)C(=O)[C@@]12C(c1cccc([N+](=O)[O-])c1)[C@@]21C(=O)N(c2ccccc2)N=C1C (relative stereo)"
assigned_class = "T"

[[record]]
compound = "COc1ccc(C2[C@@]3(C(=O)N(c4ccccc4)N=C3C)[C@]23C(=O)N(c2ccccc2)N=C3C)cc1 (relative stereo)"
assigned_class = "F"

[[record]]
compound = "CC1=NN(c2ccccc2)C(=O)[C@@]12C(c1ccccc1)[C@@]21C(=O)N(c2ccccc2)N=C1C (relative stereo)"
assigned_class = "F"

[[record]]
compound = "CC1=NN(c2ccccc2)C(=O)[C@@]12C(c1ccc([N+](=O)[O-])cc1)[C@@]21C(=O)N(c2ccccc2)N=C1C (relative stereo)"
assigned_class = "T"

[[record]]
compound = "COC(=O)c1ccc(C2[C@@]3(C(=O)N(c4ccccc4)N=C3C)[C@]23C(=O)N(c2ccccc2)N=C3C)cc1 (relative stereo)"
assigned_class = "T"

[[record]]
compound = "CC1=NN(c2ccccc2)C(=O)[C@@]12C(c1ccc(OC(F)(F)F)cc1)[C@@]21C(=O)N(c2ccccc2)N=C1C (relative stereo)"
assigned_class = "F"


## Task Evaluate CC1=NN(c2ccccc2)C(=O)[C@@]12C(c1ccc(F)cc1)[C@@]21C(=O)N(c2ccccc2)N=C1C (relative stereo) : inhibition at 100 µM at minimum 20%?
## Result F

## Task inhibition at 100 µM >= 20% for CC1=NN(c2ccccc2)C(=O)[C@@]12C(c1cccc(F)c1)[C@@]21C(=O)N(c2ccccc2)N=C1C (relative stereo) ?
## Result T

## Task Decide: is the reported value of inhibition at 100 µM for CC1=NN(c2ccccc2)C(=O)[C@@]12C(c1ccccc1[N+](=O)[O-])[C@@]21C(=O)N(c2ccccc2)N=C1C (relative stereo) equal to or greater than 20%?
## Result F

## Task Form field: inhibition at 100 µM at least 20%? Entry: CC1=NN(c2ccccc2)C(=O)[C@@]12C(c1ccc(C(F)(F)F)cc1)[C@@]21C(=O)N(c2ccccc2)N=C1C (relative stereo)
## Result T

###

Task for the reader: assign each of the following compounds its reported melting point.

// worked examples, melting point included
[[record]]
compound = "CC1=NN(c2ccccc2)C(=O)[C@@]12C(c1cccc(F)c1)[C@@]21C(=O)N(c2ccccc2)N=C1C (relative stereo)"
parameter = "melting point"
value_reported = "152.1 to 153 °C"

[[record]]
compound = "COc1ccccc1C1[C@@]2(C(=O)N(c3ccccc3)N=C2C)[C@]12C(=O)N(c1ccccc1)N=C2C (relative stereo)"
parameter = "melting point"
value_reported = "147.8 to 149 °C"

[[record]]
compound = "COc1ccc(C2[C@@]3(C(=O)N(c4ccccc4)N=C3C)[C@]23C(=O)N(c2ccccc2)N=C3C)cc1 (relative stereo)"
parameter = "melting point"
value_reported = "163.5 to 165.7 °C"

[[record]]
compound = "COC1C=C(C(c2c(C)nn(-c3ccccc3)c2O)c2c(C)nn(-c3ccccc3)c2O)C=CC1(O)OC (stereo not shown)"
parameter = "melting point"
value_reported = "208 to 210 °C"

[[record]]
compound = "CC1=NN(c2ccccc2)C(=O)[C@@]12C(c1ccc(OC(F)(F)F)cc1)[C@@]21C(=O)N(c2ccccc2)N=C1C (relative stereo)"
parameter = "melting point"
value_reported = "150.5 to 151.5 °C"

[[record]]
compound = "CC1=NN(c2ccccc2)C(=O)[C@@]12C(c1ccc(F)cc1)[C@@]21C(=O)N(c2ccccc2)N=C1C (relative stereo)"
parameter = "melting point"
value_reported = "128.9 to 129.9 °C"

[[record]]
compound = "CSc1ccc(C2[C@]3(C(=O)N(c4ccccc4)N=C3C)[C@@]23C(=O)N(c2ccccc2)N=C3C)cc1 (relative stereo)"
parameter = "melting point"
value_reported = "154.4 to 157.3 °C"

[[record]]
compound = "CC1=NN(c2ccccc2)C(=O)[C@@]12C(c1ccccc1)[C@@]21C(=O)N(c2ccccc2)N=C1C (relative stereo)"
parameter = "melting point"
value_reported = "129 to 130 °C"


For every item in the list below, what is its measured melting point?
1. CC1=NN(c2ccccc2)C(=O)C1=Cc1ccc(N(C)C)cc1
2. CC1=NN(c2ccccc2)C(=O)[C@@]12C(c1ccc([N+](=O)[O-])cc1)[C@@]21C(=O)N(c2ccccc2)N=C1C (relative stereo)
3. Cc1nn(-c2ccccc2)c(O)c1C(c1cc(O)ccc1[N+](=O)[O-])c1c(C)nn(-c2ccccc2)c1O
4. CC1=NN(c2ccccc2)C(=O)C12CC21C(=O)N(c2ccccc2)N=C1C (stereo not shown)
5. COC(=O)c1ccc(C2[C@@]3(C(=O)N(c4ccccc4)N=C3C)[C@]23C(=O)N(c2ccccc2)N=C3C)cc1 (relative stereo)

## Result
1. 190.7 to 193.2 °C
2. 145.3 to 152.9 °C (dec.)
3. 205 to 207 °C (dec.)
4. 165.8 to 167.9 °C
5. 162.5 to 163.9 °C

Answer for every listed entry: what is its melting point? The entries follow.
1. CC1=NN(c2ccccc2)C(=O)[C@@]12C(c1cccc([N+](=O)[O-])c1)[C@@]21C(=O)N(c2ccccc2)N=C1C (relative stereo)
2. CC1=NN(c2ccccc2)C(=O)[C@@]12C(c1ccc(C(F)(F)F)cc1)[C@@]21C(=O)N(c2ccccc2)N=C1C (relative stereo)
3. CC1=NN(c2ccccc2)C(=O)[C@@]12C(c1ccccc1[N+](=O)[O-])[C@@]21C(=O)N(c2ccccc2)N=C1C (relative stereo)

## Result
1. 183.9 to 185 °C
2. 154.6 to 156.5 °C
3. 165.1 to 165.5 °C

###

# Tested on: promastigotes of Leishmania mexicana
# experiment_summary: Leishmanicidal activity, MTT assay on promastigotes
# Format: cell-based
# assay_conditions: Leishmania mexicana; L. mexicana promastigotes, 48 h, MTT; read-out: Leishmanicidal Activity IC50
Please respond with reported IC50 for every item in the list.
Numbers only, in µM.

In the examples that follow, each entry is paired with its recorded IC50.
[[record]]
compound = "CSc1ccc(C2[C@]3(C(=O)N(c4ccccc4)N=C3C)[C@@]23C(=O)N(c2ccccc2)N=C3C)cc1 (relative stereo)"
value_reported = 0.42

[[record]]
compound = "CC1=NN(c2ccccc2)C(=O)[C@@]12C(c1ccccc1[N+](=O)[O-])[C@@]21C(=O)N(c2ccccc2)N=C1C (relative stereo)"
value_reported = 0.15


Batch request: IC50 per item, same order as input.
1. CC1=NN(c2ccccc2)C(=O)[C@@]12C(c1cccc([N+](=O)[O-])c1)[C@@]21C(=O)N(c2ccccc2)N=C1C (relative stereo)
2. CC1=NN(c2ccccc2)C(=O)[C@@]12C(c1cccc(F)c1)[C@@]21C(=O)N(c2ccccc2)N=C1C (relative stereo)
3. COC(=O)c1ccc(C2[C@@]3(C(=O)N(c4ccccc4)N=C3C)[C@]23C(=O)N(c2ccccc2)N=C3C)cc1 (relative stereo)

## Result
1. 0.15
2. 0.22
3. 0.28

## Task Dear colleague, I am looking for the recorded IC50 of the following compound: CC1=NN(c2ccccc2)C(=O)[C@@]12C(c1ccc(F)cc1)[C@@]21C(=O)N(c2ccccc2)N=C1C (relative stereo)
## Result 0.57
